Cited source: ChEMBL document CHEMBL6083215

tested on: COLO 205; assay: Growth inhibition of human COLO 205 cells; type: functional
experimentalEndpoint: GI50

QUERY: Need GI50, item CCCCCCCCC/C=C(/C)CC(C)(O)CC(C)C(O)CC(=O)OC (centres undefined)
RESULT: > 100 µM

QUERY: Item under review: CCCCCCCCC/C=C(/C)C[C@]1(C)C[C@H](C)[C@@H](CC(=O)O)OO1 . Reported GI50?
RESULT: 0.98 µM

QUERY: Entry COc1cccc2c1C(=O)c1c(O)c3c(c(O)c1C2=O)C[C@@](O)(C(=O)CO)C[C@@H]3O[C@H]1C[C@H](N)[C@H](O)[C@H](C)O1 : reported GI50 = ?
RESULT: 0.12 µM

QUERY: Quick one: GI50 for CCCCCCCC/C=C(/C)C[C@]1(C)C[C@H](C)[C@@H](CC(=O)O)OO1 ?
RESULT: 0.6 µM

* * *

tested on: CAKI-1; assay: Growth inhibition of human CAKI-1 cells; format: functional
experimentalEndpoint: GI50 (nM)
Numbers only; they are read as nM.

QUERY: Name the recorded GI50 for COc1cccc2c1C(=O)c1c(O)c3c(c(O)c1C2=O)C[C@@](O)(C(=O)CO)C[C@@H]3O[C@H]1C[C@H](N)[C@H](O)[C@H](C)O1 [DOXORUBICIN] .
RESULT: 120

QUERY: Reported GI50, compound CCCCCCCCC/C=C(/C)C[C@]1(C)C[C@H](C)[C@@H](CC(=O)O)OO1 : ____
RESULT: 980

QUERY: Request the reported GI50 associated with CCCCCCCC/C=C(/C)C[C@]1(C)C[C@H](C)[C@@H](CC(=O)O)OO1
RESULT: 600

* * *

tested on: RXF 393; test: Growth inhibition of human RXF 393 cells; format: functional
Field: GI50. Provide a value for each of the compounds that follow.

QUERY: Entry under review: CCCCCCCCC/C=C(/C)CC(C)(O)CC(C)C(O)CC(=O)OC (centres undefined) . Reported GI50?
RESULT: > 100000 nM

QUERY: Which GI50 is listed for CCCCCCCCC/C=C(/C)C[C@]1(C)C[C@H](C)[C@@H](CC(=O)O)OO1 ?
RESULT: 980 nM

QUERY: Sample CCCCCCCC/C=C(/C)C[C@]1(C)C[C@H](C)[C@@H](CC(=O)O)OO1 — what was its GI50?
RESULT: 600 nM

QUERY: Can you look up the measured GI50 of COc1cccc2c1C(=O)c1c(O)c3c(c(O)c1C2=O)C[C@@](O)(C(=O)CO)C[C@@H]3O[C@H]1C[C@H](N)[C@H](O)[C@H](C)O1 for me?
RESULT: 120 nM

* * *

test system: NCI-H522; assay: Growth inhibition of human NCI-H522 cells; type: functional
experimentalEndpoint: GI50 (nM)
State just the number; it will be interpreted in nM.

QUERY: Form: Entry = COc1cccc2c1C(=O)c1c(O)c3c(c(O)c1C2=O)C[C@@](O)(C(=O)CO)C[C@@H]3O[C@H]1C[C@H](N)[C@H](O)[C@H](C)O1 | System = NCI-H522 | GI50 = ____
RESULT: 120

QUERY: Missing value: GI50, NCI-H522, entry CCCCCCCCC/C=C(/C)C[C@]1(C)C[C@H](C)[C@@H](CC(=O)O)OO1 . Fill in?
RESULT: 980

QUERY: Request: GI50, test system NCI-H522, entry CCCCCCCC/C=C(/C)C[C@]1(C)C[C@H](C)[C@@H](CC(=O)O)OO1
RESULT: 600

* * *

Provide the recorded GI50 for the entries that follow.
system: M14; experiment: Growth inhibition of human M14 cells; format: functional
All answers are understood in nM, so give the number only.

QUERY: Which GI50 value belongs to CCCCCCCCC/C=C(/C)C[C@]1(C)C[C@H](C)[C@@H](CC(=O)O)OO1 ?
RESULT: 980

QUERY: Looking for the measured GI50 of COc1cccc2c1C(=O)c1c(O)c3c(c(O)c1C2=O)C[C@@](O)(C(=O)CO)C[C@@H]3O[C@H]1C[C@H](N)[C@H](O)[C@H](C)O1 [DOXORUBICIN] , can you help?
RESULT: 120

QUERY: Recorded GI50 of CCCCCCCC/C=C(/C)C[C@]1(C)C[C@H](C)[C@@H](CC(=O)O)OO1 , please.
RESULT: 600

* * *

test system: A498; test: Growth inhibition of human A498 cells; format: functional
For each record, write down the corresponding GI50.
Give the value, in units of nM, as a plain number.

QUERY: For the molecule shown here, CCCCCCCC/C=C(/C)C[C@]1(C)C[C@H](C)[C@@H](CC(=O)O)OO1 , give the reported GI50.
RESULT: 600

QUERY: Given the entry CCCCCCCCC/C=C(/C)C[C@]1(C)C[C@H](C)[C@@H](CC(=O)O)OO1 , report its measured GI50.
RESULT: 980

QUERY: If you can, please state the reported GI50 value of COc1cccc2c1C(=O)c1c(O)c3c(c(O)c1C2=O)C[C@@](O)(C(=O)CO)C[C@@H]3O[C@H]1C[C@H](N)[C@H](O)[C@H](C)O1 .
RESULT: 120

* * *

system: SK-MEL-2; assay: Growth inhibition of human SK-MEL-2 cells; format: functional
For each record, write down the corresponding GI50.

QUERY: I'd like to know its GI50. The compound in question is CCCCCCCC/C=C(/C)C[C@]1(C)C[C@H](C)[C@@H](CC(=O)O)OO1
RESULT: 600 nM

QUERY: Look up GI50 for this compound: CCCCCCCCC/C=C(/C)C[C@]1(C)C[C@H](C)[C@@H](CC(=O)O)OO1
RESULT: 980 nM

QUERY: What value of GI50 has been reported for the following compound? COc1cccc2c1C(=O)c1c(O)c3c(c(O)c1C2=O)C[C@@](O)(C(=O)CO)C[C@@H]3O[C@H]1C[C@H](N)[C@H](O)[C@H](C)O1
RESULT: 120 nM

QUERY: Can you share its GI50? I mean this compound: CCCCCCCCC/C=C(/C)CC(C)(O)CC(C)C(O)CC(=O)OC (centres undefined)
RESULT: > 100000 nM

* * *

Would you kindly list GI50 for each of these compounds?
test system: SW-620; assay: Growth inhibition of human SW620 cells; assay type: functional
Use nM as the unit, but write only the number.

QUERY: Can you look up the measured GI50 of CCCCCCCC/C=C(/C)C[C@]1(C)C[C@H](C)[C@@H](CC(=O)O)OO1 for me?
RESULT: 600

QUERY: // query GI50 value for entry COc1cccc2c1C(=O)c1c(O)c3c(c(O)c1C2=O)C[C@@](O)(C(=O)CO)C[C@@H]3O[C@H]1C[C@H](N)[C@H](O)[C@H](C)O1
RESULT: 120

QUERY: Recorded GI50 of CCCCCCCCC/C=C(/C)C[C@]1(C)C[C@H](C)[C@@H](CC(=O)O)OO1 , please.
RESULT: 980

* * *

tested on: DU-145; assay: Growth inhibition of human DU-145 cells; type: functional
experimentalEndpoint: GI50 (nM)
Dear colleague, please return just the value in nM, with no unit written.

QUERY: Form: Entry = CCCCCCCC/C=C(/C)C[C@]1(C)C[C@H](C)[C@@H](CC(=O)O)OO1 | System = DU-145 | GI50 = ____
RESULT: 600

QUERY: Query GI50 on DU-145 for COc1cccc2c1C(=O)c1c(O)c3c(c(O)c1C2=O)C[C@@](O)(C(=O)CO)C[C@@H]3O[C@H]1C[C@H](N)[C@H](O)[C@H](C)O1
RESULT: 120

QUERY: Recorded GI50 for CCCCCCCCC/C=C(/C)C[C@]1(C)C[C@H](C)[C@@H](CC(=O)O)OO1 with DU-145, please?
RESULT: 980

* * *

tested on: MDA-MB-231; assay: Growth inhibition of human MDA-MB-231 cells; type: functional
Consider the following molecules; for each one, report its GI50.
Please give a number only; it is taken to be in nM.

QUERY: Please look up its GI50: CCCCCCCC/C=C(/C)C[C@]1(C)C[C@H](C)[C@@H](CC(=O)O)OO1
RESULT: 600

QUERY: I would be grateful if you could share the reported GI50 for COc1cccc2c1C(=O)c1c(O)c3c(c(O)c1C2=O)C[C@@](O)(C(=O)CO)C[C@@H]3O[C@H]1C[C@H](N)[C@H](O)[C@H](C)O1 [DOXORUBICIN] .
RESULT: 120

QUERY: GI50 for CCCCCCCCC/C=C(/C)C[C@]1(C)C[C@H](C)[C@@H](CC(=O)O)OO1 ?
RESULT: 980
